tested on: Wild type; assay: S. aureus survival, RN4220 and DeltatarO strains – OD600, teichoic acid synthesis inhibitors, primary screen (AID 463173); settings: S. aureus RN4220 wild type/DeltatarO growth, OD600, 18 h, stronger effect = lower value, screened at 18.75 µg/mL (by protocol)
About 1,700 (3.3%) of roughly 52,000 compounds were called active. Only a selection was taken, and actives are over-represented in it overall.
READOUT: survival

[[record]]
molecule = "O=C(Nc1ccc2nc(SCC(=O)N3CCCC3)sc2c1)c1ccc(F)cc1"
obs_value = "87% (inactive)"

[[record]]
molecule = "CC(C)NC(=O)CSc1nc2ccccc2nc1N1CCCCC1"
obs_value = "-28% (active)"

[[record]]
molecule = "CCc1nc(-c2cc(S(=O)(=O)N3CCN(c4ccccc4OC)CC3)ccc2OC)no1"
obs_value = "69% (inactive)"

[[record]]
molecule = "CCOC(=O)Cn1c(=N)n(Cc2ccc(C(C)(C)C)cc2)c2ccccc21"
obs_value = "95% (inactive)"

[[record]]
molecule = "Cc1cn2c(=O)cc(COC(=O)c3ccc(NC(=O)c4ccc(C(C)(C)C)cc4)cc3)nc2s1"
obs_value = "-3% (active)"

[[record]]
molecule = "CC(C)(C)OC(=O)N1CCC(c2c(C(=O)NCc3ccc4c(c3)OCO4)cnn2-c2ccccc2Cl)CC1"
obs_value = "75% (inactive)"

[[record]]
molecule = "O=C(O)CSc1nc2ccccc2nc1N1CCCCC1"
obs_value = "62% (inactive)"

[[record]]
molecule = "O=C(COc1ccccc1)OCc1cc(=O)n2nc(-c3cccs3)sc2n1"
obs_value = "75% (inactive)"

[[record]]
molecule = "Cc1cn2c(=O)cc(COC(=O)COc3ccc(C)c(C)c3)nc2s1"
obs_value = "63% (inactive)"

[[record]]
molecule = "Cc1cc(C)c(NC(=O)CSc2nc3ccccc3nc2N2CCCCC2)c(C)c1"
obs_value = "38% (inactive)"

[[record]]
molecule = "CCOc1ccccc1C(=O)Nc1cc(-c2nc3cccnc3s2)ccc1C"
obs_value = "67% (inactive)"

[[record]]
molecule = "O=C(NCc1ccc(F)cc1)C1CCCCN1S(=O)(=O)c1ccc(F)cc1 (stereo not drawn)"
obs_value = "0% (active)"

[[record]]
molecule = "COc1ccc(S(=O)(=O)NCCc2cn3ccsc3n2)cc1OC"
obs_value = "-3% (active)"

[[record]]
molecule = "Cc1ccc(-c2nc(CS(=O)(=O)CC(=O)N3CCN(c4cccc(C)c4C)CC3)c(C)o2)cc1"
obs_value = "129% (inactive)"

[[record]]
molecule = "Cc1ccc(CNC(=O)C2(c3cccs3)CCOCC2)cc1"
obs_value = "69% (inactive)"

[[record]]
molecule = "Cc1cn2c(=O)cc(COC(=O)c3ccc(NC(=O)c4ccc(F)cc4)cc3)nc2s1"
obs_value = "70% (inactive)"

[[record]]
molecule = "COc1ccc(OCC(=O)OCc2cc(=O)n3cc(C)sc3n2)cc1"
obs_value = "1% (active)"

[[record]]
molecule = "Cc1[nH]c2ccccc2c1C1(O)C(=O)N(Cc2ccccc2)c2ccc(Br)cc21 (stereo not drawn)"
obs_value = "14% (active)"

[[record]]
molecule = "Cc1oc(-c2ccccc2F)nc1CSCC(=O)N1CCN(c2ccccc2)CC1"
obs_value = "62% (inactive)"

[[record]]
molecule = "Cc1ccc(Cn2c(=N)n(CC(=O)c3ccccc3)c3ccccc32)cc1"
obs_value = "107% (inactive)"

[[record]]
molecule = "CCC1CCCCN1C(=O)Cn1c(=O)cc(C(F)(F)F)c2c(C)nn(C)c21 (stereo not drawn)"
obs_value = "68% (inactive)"

[[record]]
molecule = "COc1ccc(C)cc1NC(=O)CSc1nc2ccccc2nc1N1CCOCC1"
obs_value = "72% (inactive)"

[[record]]
molecule = "CCCCOc1ccc(S(=O)(=O)Nc2ccc(-c3ccc(N4CCCCCC4)nn3)cc2)cc1"
obs_value = "75% (inactive)"

[[record]]
molecule = "COc1ccc(OCC(=O)OCc2cc(=O)n3nc(-c4cccs4)sc3n2)cc1"
obs_value = "87% (inactive)"

[[record]]
molecule = "c1ccc(N(c2ccccc2)c2nc(-n3nnc4ccccc43)nc(-n3nnc4ccccc43)n2)cc1"
obs_value = "103% (inactive)"

[[record]]
molecule = "COc1ccc(Nc2oc(/C=C/c3cc(OC)c(OC)c(OC)c3)nc2C#N)cc1"
obs_value = "78% (inactive)"

[[record]]
molecule = "Cc1cn2c(=O)cc(COC(=O)COc3ccc(F)cc3)nc2s1"
obs_value = "81% (inactive)"

[[record]]
molecule = "CC(Oc1ccccc1)C(=O)Nc1ccc(C(=O)OCc2cc(=O)n3ccsc3n2)cc1 (stereo not drawn)"
obs_value = "72% (inactive)"

[[record]]
molecule = "COc1ccccc1Cc1nc2ccccc2nc1SCC(=O)Nc1cc(Cl)ccc1OC"
obs_value = "89% (inactive)"

[[record]]
molecule = "CCOC(=O)c1cc(-c2ccccc2)n(CCCC(=O)Nc2ccc(C)cc2Cl)c1C"
obs_value = "91% (inactive)"

[[record]]
molecule = "COc1ccc(CN(CCN)C2CC(C)N(C)CC2C)cc1 (stereo not drawn)"
obs_value = "105% (inactive)"

[[record]]
molecule = "CCCCN1C(=O)C(O)(c2c(C)[nH]c3ccccc23)c2cc(Br)ccc21 (stereo not drawn)"
obs_value = "36% (inactive)"

[[record]]
molecule = "O=C1OC(c2ccccc2)=C/C1=C/N1CCOCC1"
obs_value = "116% (inactive)"

[[record]]
molecule = "Cc1cccc(-c2nc(CSCC(=O)N3CCN(c4cccc(C)c4C)CC3)c(C)o2)c1"
obs_value = "0% (active)"

[[record]]
molecule = "CCOC(=O)/C(C#N)=N\\Nc1ccccc1OC"
obs_value = "105% (inactive)"

[[record]]
molecule = "COC(=O)CNC(c1ccccc1)c1cc(Br)ccc1NC(=O)c1ccccc1 (stereo not drawn)"
obs_value = "62% (inactive)"

[[record]]
molecule = "COc1ccc(S(=O)(=O)N/N=C(/C2CCCCC2)C(F)(F)F)cc1"
obs_value = "111% (inactive)"

[[record]]
molecule = "CCOC(=O)c1cc2sccc2n1CC(=O)NC(C)C"
obs_value = "100% (inactive)"

[[record]]
molecule = "Cc1cc(C)cc(NC(=O)COc2cccc3c(=O)n(C)ccc23)c1"
obs_value = "72% (inactive)"

[[record]]
molecule = "COc1ccc(-c2nc(CSCC(=O)N3CCN(c4ccccc4)CC3)c(C)o2)cc1"
obs_value = "53% (inactive)"

[[record]]
molecule = "COc1ccc(Cl)cc1NC(=O)c1cc2nc(-c3ccc4c(c3)OCO4)cc(C(F)(F)F)n2n1"
obs_value = "65% (inactive)"

[[record]]
molecule = "COc1ccc(S(=O)(=O)NCCc2cn3ccsc3n2)cc1"
obs_value = "82% (inactive)"

[[record]]
molecule = "COc1ccccc1NC(=O)C(Cc1ccccc1)NS(=O)(=O)c1ccc2c(c1)CCN2C(C)=O (stereo not drawn)"
obs_value = "80% (inactive)"

